For each entry below, report its selectivity ratio value.
experiment: Selectivity index, ratio of CC50 for human C8166 cells to EC50 for HIV1 3B; assay type: toxicity, cell-based; conditions: read-out: Ratio CC50/EC50
Format: numeric value only, no unit, no commentary.

Task item: Please give the documented selectivity ratio of COc1ccc(S(=O)(=O)N(CC(C)C)C[C@@H](O)[C@H](Cc2ccc(-c3ccc(C(C)=O)cc3)cc2)NC(=O)O[C@H]2CCOC2)cc1
Reply: 90500

Task item: Please give the documented selectivity ratio of COc1ccc(S(=O)(=O)N(CC(C)C)C[C@@H](O)[C@H](Cc2ccc(-c3cccc(C#N)c3)cc2)NC(=O)O[C@H]2CCOC2)cc1
Reply: 34800

Task item: Please give the documented selectivity ratio of COc1ccc(S(=O)(=O)N(CC(C)C)C[C@@H](O)[C@H](Cc2ccc(-c3ccc(F)cc3)cc2)NC(=O)O[C@H]2CCOC2)cc1
Reply: 35200

Task item: Please give the documented selectivity ratio of CC(C)CN(C[C@@H](O)[C@H](Cc1ccc(-c2ccncc2)cc1)NC(=O)O[C@H]1CCOC1)S(=O)(=O)c1ccc(N)cc1
Reply: 2.6e+06
